B1: SFRS1 (parent)
chain: RDIDLKNRRGGPPFAFVEFEDPRD

Variants of: B1
Assay: protein stability index of a GFP-peptide fusion (GPS, HEK-293T) (PSI 1-6); higher = more stable;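 also: lentivirally expressed fusions sorted by FACS into six bins by GFP to DsRed ratio, PSI derived from sequencing read proportions per bin multiplied by bin number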
Conditions: c terminus: a fixed tail appended
Quantity kind: protein stability index
Lab note: record the figure alone, no unit after it.

Example entries begin here.
>>> print(df.to_string())
   mutations  measured_number
0       E20L             2.71
1       F19D             3.69
2        D4F             2.81

We next turn to a different variant, shown below.
Incoming: If you can, please state the reported protein stability index value of L5V .
Outgoing: 3.94

Values were extracted from the supplement of paper PMC10567573.
